Ref: ChEMBL document CHEMBL3988442

# Test system: Plasmodium falciparum
# experimental protocol: Calibr Malaria Delayed Death Assay SOP
# Assay type: functional, organism-based
# Parameters: scale not given: in the data most compounds retested in dose-response had high values
# test conditions: concentration 4.99e-06 (unit not given; other assays of the set use mol/L)
Out of some 38,000 compounds screened, about 1,200 (3.2%) showed an effect of 50% or more. The median lay at about -58%. The list comes from a sample in which strong results are over-represented; it also holds close analogues and randomly drawn compounds.
Could you mark each record 1 if its Percent Effect falls strictly under -70%, and 0 if it equals or exceeds it?

Prompt line: Given the entry `COc1c(C)cnc(CN(C)C2CCCCC2)c1C` , would its reported Percent Effect be below -70%?
Response line: 0

Prompt line: Please let me know if `COc1c(C)cnc(CN2CCn3c(nnc3C(C)C)C2)c1C` shows Percent Effect below -70%.
Response line: 1

Prompt line: Consider the compound `Cc1n[nH]cc1CNCC1(c2ccccc2Cl)CCOCC1` . Is its Percent Effect strictly less than -70%?
Response line: 0

Prompt line: Does the reported Percent Effect of O=C(NC1CC1)C1CNCCN1C(=O)CCOc1ccccc1 (centres undefined) stay below -70%?
Response line: 1

Prompt line: API: query returns whether the compound falls strictly under -70% in Percent Effect. Query: O=C(NCC1(O)CCOC1)NCC1(c2ccccc2Cl)CC1 (centres undefined)
Response line: 0

Prompt line: I wonder whether `Cc1csc(CNC(=O)NCC2(c3ccc4c(c3)OCO4)CC2)n1` has Percent Effect below -70%. Can you tell?
Response line: 0

Prompt line: Input `O=S(=O)(NCC1(c2cccs2)CCOCC1)c1ccc2c(c1)OCCO2` ; condition: Percent Effect strictly below -70%. Does it hold?
Response line: 0

Prompt line: Dear colleague, could you confirm whether Percent Effect of `COc1ncc(C(=O)N2CCC(c3nc(C)n4ccsc34)CC2)cn1` falls below -70%? Thanks.
Response line: 1

Prompt line: Lab note: confirm whether the reported Percent Effect for this compound is below -70%, equality not counting. compound: `COCCNC(=O)[C@@H]1CN(Cc2sccc2C)C[C@H]2OCC[C@H]21.O=C(O)C(F)(F)F`
Response line: 0

Prompt line: In plain terms, does `I.c1cc2c(cc1C1(CNC3=NCCN3)CCCC1)OCCO2` come in under -70% for Percent Effect?
Response line: 0

Prompt line: Find out if reported Percent Effect for `O=C(COc1ccccc1Br)N1CCOc2ccncc21` is less than -70%
Response line: 0

Prompt line: Is it true that Percent Effect reported for Cc1noc(CN2CCCC(Cn3nc(C)nc3C)C2)n1 (centres undefined) is less than -70%?
Response line: 1

Prompt line: Below -70% on Percent Effect? Entry `Cc1cnn(CCCNCc2csc(COc3ccccc3)n2)c1`
Response line: 0

Prompt line: Item CN1CCCCC1CCC(=O)NCCCn1ncc2ccccc21 (centres undefined) : Percent Effect beneath -70%, strictly?
Response line: 0

Prompt line: Below -70% on Percent Effect? Entry COc1c(C)cnc(CN(C)C2CCOC3(CCOCC3)C2)c1C (centres undefined)
Response line: 0

Prompt line: Is Percent Effect strictly under -70% for the entry COc1ccc(C(C(=O)O)N(C)CCN2CCCC2)c(C)c1 (centres undefined) ?
Response line: 0

Prompt line: # check: Percent Effect < -70% for `Cc1nc(NC(=O)c2c(-n3cnnn3)sc3c2CCC3)sc1C`
Response line: 1

Prompt line: Is -70% strictly greater than the compound's reported Percent Effect? compound: `Cc1cnn(CCNCc2csc(COc3ccccc3)n2)c1`
Response line: 0
